// pIC50 lookup, one value per entry
# assayedSystem: Electrophorus electricus AChE (EeAChE) (Electrophorus electricus, UniProt O42275)
# Sequence (O42275 24-633): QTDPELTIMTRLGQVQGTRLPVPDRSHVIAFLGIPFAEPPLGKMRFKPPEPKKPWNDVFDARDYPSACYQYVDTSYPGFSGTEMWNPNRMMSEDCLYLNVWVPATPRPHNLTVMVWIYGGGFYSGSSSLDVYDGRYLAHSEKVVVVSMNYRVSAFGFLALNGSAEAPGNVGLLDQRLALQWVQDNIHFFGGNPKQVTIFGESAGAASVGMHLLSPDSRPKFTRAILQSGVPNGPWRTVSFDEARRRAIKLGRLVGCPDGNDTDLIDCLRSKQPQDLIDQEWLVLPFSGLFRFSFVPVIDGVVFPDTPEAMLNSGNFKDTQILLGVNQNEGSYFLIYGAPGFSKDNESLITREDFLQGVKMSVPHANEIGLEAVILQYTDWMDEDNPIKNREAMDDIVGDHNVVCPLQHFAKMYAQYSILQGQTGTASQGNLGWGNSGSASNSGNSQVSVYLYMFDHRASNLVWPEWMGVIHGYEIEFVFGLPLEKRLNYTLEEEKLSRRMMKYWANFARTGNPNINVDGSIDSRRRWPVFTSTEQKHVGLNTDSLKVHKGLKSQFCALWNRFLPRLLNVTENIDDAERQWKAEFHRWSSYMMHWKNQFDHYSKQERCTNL
# methodNotes: biochemical
# Assay type: biochemical
# condition: mean ± SEM
Answer as the number alone; pIC50 is minus log10 of concentration in mol/L.

Solved entries:
# compound, assayedSystem, pIC50
data = [
    ("N#Cc1ccc(-c2nc3ccc(Cl)cc3c3c2CCCO3)cc1 [Compound 38]", "Electrophorus electricus AChE (EeAChE) (Electrophorus electricus, UniProt O42275)", 5.57),
    ("N#Cc1ccc(-c2nc3ccc(Cl)cc3c3c2CCCN3)cc1 [Compound 27]", "Electrophorus electricus AChE (EeAChE) (Electrophorus electricus, UniProt O42275)", 5.95),
    ("NCc1ccc(-c2nc3ccc(Cl)cc3c3c2CCCCN3)cc1 [Compound 32]", "Electrophorus electricus AChE (EeAChE) (Electrophorus electricus, UniProt O42275)", 5.92),
]

Quick one: pIC50 for NCc1ccc(-c2nc3ccc(Cl)cc3c3c2CCCN3Cc2ccccc2)cc1 [Compound 3] ?
5.44

Quick one: pIC50 for N#Cc1ccc(-c2nc3ccc(Cl)cc3c3c2CCN3)cc1 [Compound 26] ?
5.92

Quick one: pIC50 for N#Cc1ccc(-c2nc3ccc(Cl)cc3c3c2CCCCN3)cc1 [Compound 28] ?
5.66

Quick one: pIC50 for NCc1ccc(-c2nc3ccc(Cl)cc3c3c2CCN3)cc1 [Compound 30] ?
6.06

Quick one: pIC50 for NCc1ccc(-c2nc3ccc(Cl)cc3c3c2CCCN3)cc1 [Compound 31] ?
6.01

Quick one: pIC50 for Clc1ccc2nc(-c3ccco3)c3c(c2c1)OCCC3 [Compound 42] ?
4.79

Quick one: pIC50 for NCc1ccc(-c2nc3cc(Cl)ccc3c3c2CCCN3)cc1 [Compound 33] ?
6.36

Quick one: pIC50 for N#Cc1ccc(-c2nc3cc(Cl)ccc3c3c2CCCN3)cc1 [Compound 29] ?
5.49

Quick one: pIC50 for Clc1ccc2nc(-c3cccs3)c3c(c2c1)OCCC3 [Compound 43] ?
5.03
